Target: Transcriptional activator protein LasR (Pseudomonas aeruginosa (strain ATCC 15692 / PAO1 / 1C / PRS 101 / LMG12228))
Test: Inhibition of LasR in Pseudomonas aeruginosa PA14 assessed as reduction in biofilm formation at 1 to 1000 uM incubated at 37 degC for 24 hrs by crystal violet staining based static biofilm formation assay
OBSERVATION_TYPE: inhibition (%)

>  <MOLECULE_SMILES>
CCCCCCCCCCCCCOc1cc(C)oc(=O)c1

>  <RESULT_VALUE>
6

$$$$
>  <MOLECULE_SMILES>
CCCCCCCCCCCCCCOc1cc(C)oc(=O)c1

>  <RESULT_VALUE>
6

$$$$
>  <MOLECULE_SMILES>
O=C1C=C(Br)/C(=C/Br)O1

>  <RESULT_VALUE>
13

$$$$
>  <MOLECULE_SMILES>
CCCCCCCCCCCCOc1cc(C)oc(=O)c1

>  <RESULT_VALUE>
11

$$$$
